Test system: A549
experiment.description: Induction of apoptosis in human A549 cells assessed as apoptotic cells at 100 uM incubated for 24 hrs by FITC-Annexin V staining based flow cytometric analysis (reference value: 20%)
Type: functional
Label class 0 if Activity falls below 60%; label class 1 in every other case.

Could you tell me if the measured Activity of COc1ccc(CCc2cccc(NC(=O)Nc3ccc(Cl)cc3)c2)cc1 reaches 60% or more?
class 1

// inclusive: Activity at least 60%? input: COc1ccc(/C=C\c2cccc(NC(=O)Nc3cccc(Cl)c3)c2)cc1
class 0

* * *

Test system: A549
experiment.description: Effect on VEGFR2 in human A549 cells assessed as membrane VEGFR2 level at 100 uM incubated for 24 hrs by flow cytometric analysis relative to control
Type: functional
reported.endpoint: Activity (%)
// units = %; emit number, no label

Worked examples follow.
- structure.smiles.string: "COc1ccc(Cc2cn(CCNC(=O)Nc3ccc(Br)cc3)nn2)cc1"
  reported.endpoint: "Activity"
  u: "%"
  meas.value: 70
- structure.smiles.string: "COc1ccc(Cc2cn(CCNC(=O)Nc3cccc(Br)c3)nn2)cc1"
  reported.endpoint: "Activity"
  u: "%"
  meas.value: 98
- structure.smiles.string: "CNC(=O)c1cc(Oc2ccc(NC(=O)Nc3ccc(Cl)c(C(F)(F)F)c3)cc2)ccn1"
  reported.endpoint: "Activity"
  u: "%"
  meas.value: 92

Let's switch to this compound now.
Form field: reported Activity of COc1ccc(Cc2cn(CCNC(=O)Nc3cccc(Cl)c3)nn2)cc1
95

* * *

Readings of Activity for the listed molecules
Tested on: HMEC-1
experiment.description: Effect on VEGFR2 in HMEC1 cells assessed as total VEGFR2 level at 10 uM incubated for 24 hrs by flow cytometric analysis relative to control
Type: functional, Homo sapiens
The response must be a number in % with no trailing unit.

- molecule: "CNC(=O)c1cc(Oc2ccc(NC(=O)Nc3ccc(Cl)c(C(F)(F)F)c3)cc2)ccn1 [SORAFENIB]"
  experimental.system: "HMEC-1"
  meas.value: 64
- molecule: "COc1ccc(/C=C/c2cccc(NC(=O)Nc3ccc(Cl)cc3)c2)cc1"
  experimental.system: "HMEC-1"
  meas.value: 109
- molecule: "COc1ccc(/C=C/c2cccc(NC(=O)Nc3cccc(Cl)c3)c2)cc1"
  experimental.system: "HMEC-1"
  meas.value: 106

# evaluate next
Query: Activity; subject: COc1ccc(/C=C/c2cccc(NC(=O)Nc3ccccc3Cl)c2)cc1
121

* * *

Recorded Activity for the following compounds
Test system: A549
experiment.description: Effect on VEGFR2 in human A549 cells assessed as membrane VEGFR2 level at 10 uM incubated for 24 hrs by flow cytometric analysis relative to control
Format: functional
Could you give me the number in %? Just the number is fine.

# count of solved cases: 8
- structure.smiles.string: "CNC(=O)c1cc(Oc2ccc(NC(=O)Nc3ccc(Cl)c(C(F)(F)F)c3)cc2)ccn1"
  Activity (%): 92
- structure.smiles.string: "COc1ccc(CCc2cccc(NC(=O)Nc3cccc(Cl)c3)c2)cc1"
  Activity (%): 97
- structure.smiles.string: "COc1ccc(/C=C\\c2cccc(NC(=O)Nc3ccc(Cl)cc3)c2)cc1"
  Activity (%): 118
- structure.smiles.string: "COc1ccc(/C=C/c2cccc(NC(=O)Nc3ccccc3Cl)c2)cc1"
  Activity (%): 109
- structure.smiles.string: "COc1ccc(/C=C/c2cccc(NC(=O)Nc3cccc(Cl)c3)c2)cc1"
  Activity (%): 52
- structure.smiles.string: "COc1ccc(/C=C\\c2cccc(NC(=O)Nc3cccc(Cl)c3)c2)cc1"
  Activity (%): 102
- structure.smiles.string: "COc1ccc(CCc2cccc(NC(=O)Nc3ccccc3Cl)c2)cc1"
  Activity (%): 100
- structure.smiles.string: "COc1ccc(CCc2cccc(NC(=O)Nc3ccc(Cl)cc3)c2)cc1"
  Activity (%): 97

# query: Activity | item COc1ccc(/C=C/c2cccc(NC(=O)Nc3ccc(Cl)cc3)c2)cc1 | system: A549
56

// fetch A549 Activity for COc1ccc(/C=C\c2cccc(NC(=O)Nc3ccccc3Cl)c2)cc1
114
